Hello, the source for this data is patent US9382295B2, in case you need it.

Assay: Rat pharmacokinetics, iv and po dosing, whole blood and plasma
Type: in vivo
Conditions: whole blood, iv 1 mg/kg, mean, read-out: volume of distribution at the terminal phase
Procedure: Rat pharmacokinetic data was obtained for example 2, following iv dosing at 1 mg/kg and po dosing at 10 mg/kg and individual analysis of plasma and whole blood samples at various time points was carried out.
property-measured: Vd
# number then unit; no other words

State the recorded Vd for this entry: CC(C)CC1NC(=O)[C@H](CC(C)C)N(C)C(=O)CN(C)C(=O)C([C@@H](C)O)NC(=O)C([C@H](O)[C@H](C)CCN2CCOCC2)N(C)C(=O)C(C(C)C)N(C)C(=O)C(CC(C)C)NC(=O)C(CC(C)C)N(C)C(=O)C(C(C)C)OC(=O)C(C)NC(=O)C(CC(C)C)N(C)C1=O (stereo in doubt)
10.3 L/kg
